Target or test system: MMP-14 (Homo sapiens, UniProt P50281)
Construct: The catalytic domain enzyme was expressed in E. coli inclusion bodies, solubilized in urea; made in house
Method summary: In vitro MMP inhibition, IC50 determination (fluorogenic substrate I)
Type: biochemical
Test context: values in parenthesis; 4 μM substrate I; room temperature
Counter-ions that a name gives are not always drawn.
Please provide measured IC50 for the entries that follow.
Answers are plain numbers, in µM.

Recorded IC50, per entry:
CCCCCc1ccc(C2CCN(S(=O)(=O)C3(C(=O)NO)CCN(CCOC)CC3)CC2)cc1 [Example 15, Hydrochloride]	6.17
CCCCOc1ccc(N2CCN(S(=O)(=O)C3(C(=O)NO)CCN(CCOC)CC3)CC2)cc1F [Example 11, Dihydrochloride]	7.12
O=C(NO)C1(S(=O)(=O)N2CCN(c3ccc(OCC4CC4)c(F)c3)CC2)CCN(C2CC2)CC1 [Example 10, dihydrochloride]	5.82

Attention now shifts to the item below.
Return IC50 for the following compound: CCCCc1ccc(N2CCN(S(=O)(=O)C3(C(=O)NO)CCN(CCOC)CC3)CC2)cc1 [Example 5, Dihydrochloride]
4.55
